Target: UK variant RBD (R319-F541 with N501Y), C-terminal 6-His (SARS-CoV-2, UniProt P0DTC2 319-541)
Assay: lateral flow NC50, RBD-AuNP vs immobilised ACE2
RECORDED ENDPOINT: IC50 (µg/mL)
Field format: number, assumed µg/mL, no unit text.

Prompt line: Determine its reported IC50: 1035753 (antibody, V domains shown) VH: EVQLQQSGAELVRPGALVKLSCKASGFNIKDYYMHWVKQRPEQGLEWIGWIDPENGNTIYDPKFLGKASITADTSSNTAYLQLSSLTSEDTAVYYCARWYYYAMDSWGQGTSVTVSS VL: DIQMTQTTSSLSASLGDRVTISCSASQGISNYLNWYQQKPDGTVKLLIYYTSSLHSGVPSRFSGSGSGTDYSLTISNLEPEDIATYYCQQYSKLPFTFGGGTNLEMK
Response line: 1.51
